Data provenance: the NIST ThermoML archive (doi:10.1021/je301103d)

Conditions: 298.15 K; 101.33 kPa; Liquid; Vibrating tube method
The reader will find reported mass density values listed item by item below.
Output spec: scalar in kg/m3, unitless text.

C[C@H](N)C(=O)[O-].C[N+](C)(C)CCO [2-hydroxy-N,N,N-trimethylethanaminium L-alaninate]	1112.94

Q: # return recorded mass density for input C[N+](C)(C)CCO.O=C([O-])[C@@H]1CCCN1 [2-hydroxy-N,N,N-trimethylethanaminium L-prolinate]
Ans: 1121.04

Q: # return recorded mass density for input C[N+](C)(C)CCO.N[C@@H](CO)C(=O)[O-] [2-hydroxy-N,N,N-trimethylethanaminium L-serinate]
Ans: 1191.51

Q: # return recorded mass density for input C[N+](C)(C)CCO.NCCC(=O)[O-] [2-hydroxy-N,N,N-trimethylethanaminium β-alaninate]
Ans: 1120.29

Q: # return recorded mass density for input C[N+](C)(C)CCO.NCC(=O)[O-] [2-hydroxy-N,N,N-trimethylethanaminium glycinate]
Ans: 1145.2
